Tested on: SR leukemia
Assay: NCI-60 one-dose screen, 48 h
Conditions: 10 µM
About 83,000 compounds went through this panel and 20% of them were active in at least one assay; those are over-represented in the sample as a whole. Calls of active or inactive are those of the source. How the source made its calls: active means growth percent below 10; inactive means the rest.
Possible outcomes: yes for active, no for inactive

>  <molecule>
Cc1ccc(-c2cc(C(=O)N=Nc3c(O)[nH]c4ccc(Br)cc34)c3ccccc3n2)cc1

>  <classification>
no

$$$$
>  <molecule>
Cc1ccc(C(=O)NNC(=O)CSc2nc3ccccc3c(=O)[nH]2)cc1

>  <classification>
no

$$$$
>  <molecule>
O=C(Nc1cccc([N+](=O)[O-])c1)Nc1cccc([N+](=O)[O-])c1

>  <classification>
no

$$$$
>  <molecule>
COc1ccc(C(=O)/C=C/c2cc(C(F)(F)F)cc(C(F)(F)F)c2)cc1S(N)(=O)=O

>  <classification>
yes

$$$$
>  <molecule>
O=c1cc(-c2ccccc2)oc2cc(OCCCCNCc3ccccc3)cc(O)c12

>  <classification>
yes

$$$$
>  <molecule>
N#Cc1c(NC(=O)c2ccc(C(F)(F)F)c(Cl)c2)sc2c1CCC(=O)C2

>  <classification>
yes

$$$$
>  <molecule>
CCOC(=O)c1sc(N/N=C(\C)c2ccc3c(c2)Nc2ccccc2S3)nc1C

>  <classification>
no

$$$$
>  <molecule>
C=C1CCC2C3(C)COC(c4c(F)cccc4F)OC3CCC2(C)C1CC(O)C1=CCOC1=O (centres undefined)

>  <classification>
no

$$$$
>  <molecule>
CC1=N/C(=C\c2ccc(N(C)C)cc2)C(=O)N1CCc1ccc(S(N)(=O)=O)cc1

>  <classification>
no

$$$$

---

System: M14 melanoma
Test: NCI-60 one-dose screen, 48 h (100 = growth as untreated, 0 = no growth, -100 = all killed)
Conditions: 10 µM
This is part of a sample that, as a whole, favours compounds with a hit. Of some 83,000 tested, about 20% had one in any assay.
Please note: t applies when growth is 50% or greater, and f applies otherwise.

>  <molecule>
Cc1ccc(-c2cc(-c3cc4ccccc4nc3Cl)[nH]c(=S)n2)cc1

>  <classification>
f

$$$$
>  <molecule>
O=C(CNc1nc(-c2ccccc2)cs1)Nc1ccc(Cl)cc1[N+](=O)[O-]

>  <classification>
f

$$$$
>  <molecule>
COc1ccc(NC(=O)Nc2ccc(OCC(=O)N=Nc3c(O)[nH]c4ccc([N+](=O)[O-])cc34)cc2)cc1

>  <classification>
t

$$$$
>  <molecule>
O=c1[nH]c2ccccc2cc1CSc1ccc(Nc2nccc(-c3ccc4c(c3)OCO4)n2)cc1

>  <classification>
t

$$$$
>  <molecule>
CC(=O)Nc1ccc(-n2cnc3cc(-c4ccc(NS(C)(=O)=O)cc4)ccc32)cc1

>  <classification>
t

$$$$
>  <molecule>
CC(=C(c1ccc(OCCCN(C)C)cc1)c1ccc(OCCCN(C)C)cc1)c1ccccc1

>  <classification>
f

$$$$
>  <molecule>
CC(=O)Nc1ccc(-c2cn(-c3cccc(C(=O)Nc4cc(CN5CCOCC5)cc(C(F)(F)F)c4)c3)nn2)cn1

>  <classification>
f

$$$$
>  <molecule>
O=c1c2ccccc2nc(COc2ccccc2)n1/N=C/c1ccc(F)cc1

>  <classification>
t

$$$$
>  <molecule>
O/N=C(\CSc1nnc(-c2c[nH]c3ccccc23)n1-c1ccccc1)c1ccc(Cl)cc1

>  <classification>
f

$$$$
>  <molecule>
Cn1cc(/C=N/Nc2cccc(Cl)n2)c2ccccc21

>  <classification>
t

$$$$
>  <molecule>
CN1CCN(Cc2ccc(C(=O)Nc3cccc(Nc4ccc5c(O)cccc5n4)c3)cc2C(F)(F)F)CC1

>  <classification>
f

$$$$
>  <molecule>
COc1ccc(-c2cc(C(=O)N=Nc3c(O)[nH]c4ccc(Br)cc34)c3ccccc3n2)cc1

>  <classification>
f

$$$$
>  <molecule>
Cc1cc(=O)oc2cc(OCCCCOc3ccc(/C=C/C(=O)Nc4ccccc4[N+](=O)[O-])cc3)ccc12

>  <classification>
t

$$$$
>  <molecule>
O=C1Nc2cc(Cl)ccc2/C1=C/c1cccc(OCc2ccc(Br)cc2F)c1

>  <classification>
f

$$$$
>  <molecule>
Brc1ccc(/C=N/Nc2ncnc3sc4c(c23)CCN(Cc2ccccc2)C4)cc1

>  <classification>
f

$$$$
>  <molecule>
O=C(O)CCCCCCCCCCN1C(=O)/C(=C/c2cnc(-c3ccccc3)s2)SC1=S

>  <classification>
t

$$$$
>  <molecule>
Clc1cccc(N/N=C/c2c[nH]c3ccccc23)n1

>  <classification>
f

$$$$
>  <molecule>
CC(=O)Oc1ccccc1C(=O)Oc1ccc(C(=O)/C=C/c2ccncc2)cc1

>  <classification>
f

$$$$
>  <molecule>
C#CCNC(=O)CCC(=O)OC[C@]12CC[C@@H](C(=C)C)[C@@H]1C1CC[C@@H]3[C@@]4(C)CCCNC(C)(C)[C@@H]4CC[C@@]3(C)[C@]1(C)CC2 (stereo partly drawn)

>  <classification>
f

$$$$
>  <molecule>
CC(C)Sc1nc(NC2CC2)c(C#N)c(-c2ccccc2)n1

>  <classification>
t

$$$$
>  <molecule>
CCCCOc1ccc(Nc2nc3ccccc3nc2Nc2ccc(OCCCC)cc2)cc1

>  <classification>
t

$$$$
>  <molecule>
COc1cc2c(cc1OC)CN(CCCCOc1cc(O)c3c(=O)cc(-c4ccccc4)oc3c1)CC2

>  <classification>
f

$$$$
>  <molecule>
OCCNc1oc(-c2ccccc2)nc1[P+](c1ccccc1)(c1ccccc1)c1ccccc1

>  <classification>
f

$$$$
>  <molecule>
O=C(c1ccc(O)cc1)C1[C@H](c2ccccc2Br)[C@@H](c2ccccc2)NC12C(=O)Nc1ccc(Cl)cc12 (stereo partly drawn)

>  <classification>
f

$$$$
>  <molecule>
CN1C(=O)/C(=C/c2nccs2)SC1=S

>  <classification>
t

$$$$
>  <molecule>
O=C(Nc1cccc(C(F)(F)F)c1)c1cncc(C#Cc2cnc3cccnn23)c1

>  <classification>
f

$$$$
>  <molecule>
CCOC(=O)CNC(=O)CN(Cc1ccccc1)C(=O)[C@@]1(C)CCC[C@]2(C)[C@H]3CC4C(C(C)C)=C[C@]3(CC[C@H]21)[C@@H]1C(=O)CCC(=O)[C@H]41

>  <classification>
t

$$$$
>  <molecule>
COc1cc(/C=N/NC(=O)c2ccc3nc(-c4ccc(Cl)cc4)[nH]c3c2)cc(OC)c1OC

>  <classification>
f

$$$$
>  <molecule>
COc1ccc2[nH]c(=O)c(CSc3cccc(N)c3)cc2c1

>  <classification>
f

$$$$
>  <molecule>
O=C(CNc1nc(-c2ccccc2)cs1)Nc1ccc(Br)cc1

>  <classification>
f

$$$$
>  <molecule>
C=C1CCC2C3(C)COC(c4c(F)cccc4F)OC3CCC2(C)C1C/C=C1/C(=O)OCC1O (stereo not drawn)

>  <classification>
f

$$$$
>  <molecule>
CCOc1ccc2ncc(C#Cc3cncc(C(=O)Nc4ccc(CN5CCN(C)CC5)c(C(F)(F)F)c4)c3)n2n1

>  <classification>
f

$$$$
>  <molecule>
COc1ccc2nc(Cl)c(-c3cc(-c4ccccc4)nc(=S)[nH]3)cc2c1

>  <classification>
f

$$$$
>  <molecule>
Cn1cc(-c2cc(N)n3nc(-c4c[nH]c5ccc(Br)cc45)cc3n2)c2cccnc21

>  <classification>
f

$$$$
>  <molecule>
O=C(NO)c1ccc(Cn2ccc3c(NCc4ccccc4)ncnc32)cc1

>  <classification>
f

$$$$
>  <molecule>
O=C(CS(=O)(=O)c1oc(-c2ccc(Cl)cc2)nc1S(=O)(=O)c1ccc(Cl)cc1)N1CCOCC1

>  <classification>
f

$$$$
>  <molecule>
O=C1CCC(N2Cc3cc(NC(=O)COc4ccccc4)ccc3C2=O)C(=O)N1 (stereo not drawn)

>  <classification>
t

$$$$
>  <molecule>
COc1ccsc1/C=N/NC(=O)c1[nH]c2ccc(Br)cc2c1-c1ccccc1

>  <classification>
f

$$$$
